Biological target: T1, CD27 protein (His-tagged, Sino Biological Inc. 10039-H08B1) (human, UniProt P26842 20-192)
T1 construct: bought protein coated on ELISA plates; also called TNFRSF7; not shown: His tag
T1 sequence (looked up): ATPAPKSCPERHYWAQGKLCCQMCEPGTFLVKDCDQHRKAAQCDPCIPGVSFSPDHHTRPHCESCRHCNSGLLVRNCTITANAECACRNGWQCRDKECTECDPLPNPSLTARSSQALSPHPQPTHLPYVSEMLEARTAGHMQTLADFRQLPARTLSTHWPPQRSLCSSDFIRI
Test: ELISA, coated His-tagged CD27; note: test concentration or dose not given here
observation_type: ELISA [abs. corr.] (abs. corr.)
Numbers only, in abs. corr..

Study these solved cases before continuing.
>>> val("P018.S.01.A.A06 (antibody, V domains shown, V regions on human Ig constant parts; also called AB27_3) VH: QSVEESGGRLVTPGTPLTLTCTVSGIDLSTYAMSWVRQAPGKGLEWIGIIYGSGYTYYASWAKGRATISKTSSTTVDLKITSPTTEDTATYFCASGYGISSGNFLHFNLWGQGTLVTVSS VL: AYDMTQTPASVEVAVGGTVTIKCQASESIYFNLAWYQQKPGQRPKLLIYRASTLASGVSSRFKGSGSGTQFTLTISGVESADAATYYCQQGYDSSHIDNAFGGGTEVVVT")
3.09
>>> val("P018.S.09.A.A06 (antibody, V domains shown, V regions on human Ig constant parts; also called AB27_146) VH: QEQLKESGGGLVQPGESLTLTCTASGFSLSSYYMSWVRQAPGKGLEWIGMISTGGSAYYANWARGRFTISRTSTTVDLKVTSLTTEDTATYFCARGWRYEDLWGQGTLVTVSS VL: AQVLTQTPSPVSAAVGSTVTINCQSSQTVYNNNYLAWYQQKPGQPPKLLIYDASNLASGVSSRFSGSGSGTQFTLTISDLESDDAATYYCQGTYYDNAWYHTFGGGTEVVVK")
3.09

Input line: # ELISA [abs. corr.] lookup, item P018.S.10.A.C02 (antibody, V domains shown, V regions on human Ig constant parts; also called AB27_171) VH: QSVEESGGRLVTPGTPLTLTCTVSGIDLSNYAMSWVRQTPGKGLEWIGAIGIGGNTYYASWAKGRFTISRTSTMVDLKVASPTPEDTATYFCARHAGAGVVNWLDLWGQGTLVTVSS VL: DVVMTQTPASVSEPVGGTVTIKCQASQSIGSNLAWYQQKPGQPPKLLIYAASDLASGVPSRFSGSGSGTEFTLTISGVQSDDAATFYCQTYGSGSFSSFNLFGGGTEVVVK
Output line: 2.9
